ENDPOINT NAME: melting point

{"MOLECULE": "COc1ccc2c(c1)c(CC(=O)OCC(=O)O)c(C)n2C(=O)c1ccc(C(F)(F)F)cc1", "ENDPOINT NAME": "melting point", "READOUT VALUE": "166 to 167 °C"}
{"MOLECULE": "CC(=O)O[C@@](Cn1cncn1)(c1ccccc1F)[C@@H](C)n1ccnn1", "ENDPOINT NAME": "melting point", "READOUT VALUE": "133 to 134 °C"}
{"MOLECULE": "CCCCCCCCCCCCCCc1ccc(OCC(O)CO)cc1 (stereo not given)", "ENDPOINT NAME": "melting point", "READOUT VALUE": "81.5 to 83.5 °C"}
{"MOLECULE": "COc1ccc2c(c1)N(CCCN1CCC(CCO)CC1)c1cccc(SC)c1S2", "ENDPOINT NAME": "melting point", "READOUT VALUE": "101 to 103 °C"}
{"MOLECULE": "O=C(Cc1cccc(C(F)(F)F)c1)NCc1cccc2c1C(=O)N(C1CCC(=O)NC1=O)C2=O (stereo not given)", "ENDPOINT NAME": "melting point", "READOUT VALUE": "156 to 158 °C"}
{"MOLECULE": "Cc1cc(C)c(C(=O)P(=O)(Oc2ccccc2C(C)(C)C)c2ccccc2)c(C)c1 (stereo not given)", "ENDPOINT NAME": "melting point", "READOUT VALUE": "76 to 79 °C"}
{"MOLECULE": "CCN(C)C(=O)c1cnn(-c2cccc(C#N)c2)c1C#N", "ENDPOINT NAME": "melting point", "READOUT VALUE": "185 to 187 °C"}
{"MOLECULE": "Nc1cc(Cl)cc(Cl)c1C(=O)NCc1cccc(F)c1", "ENDPOINT NAME": "melting point", "READOUT VALUE": "79 to 81 °C"}
{"MOLECULE": "O=c1c2cc(F)c(N3CCCC3)nc2n(-c2ccccc2F)c(=O)n1O", "ENDPOINT NAME": "melting point", "READOUT VALUE": "> 250 °C"}
{"MOLECULE": "c1cncc(Nc2nnc(Cc3ccncc3)c3ccccc23)c1", "ENDPOINT NAME": "melting point", "READOUT VALUE": "137 to 139 °C"}

====

{"COMPOUND": "CCNc1c(OC)cc(C(=O)CS(C)(=O)=O)cc1OC", "melting point": "129 to 130 °C"}
{"COMPOUND": "CC(=O)c1ccc(NS(=O)(=O)N(C)C)c(Oc2ccc(F)cc2F)c1", "melting point": "80 to 82 °C"}
{"COMPOUND": "O=C(O)C(=O)Nc1cccc([N+](=O)[O-])c1", "melting point": "> 270 °C"}
{"COMPOUND": "O=C1C=C(NC(=O)C(=O)c2cn(Cc3ccc(F)cc3)c3cc4c(cc23)OCO4)CO1", "melting point": "210 to 212 °C"}
{"COMPOUND": "CC(=O)Nc1nc(CCc2ccc(CCl)cc2)c(Cc2ccc(S(C)(=O)=O)cc2)s1", "melting point": "202 to 203 °C"}
{"COMPOUND": "Fc1c(Cl)cccc1COc1cccnc1NC(=S)Nc1ccc(Cl)cc1", "melting point": "174 to 176 °C"}
{"COMPOUND": "CC(C)N(CCC1(c2ccccc2)C(=O)NC(C)N2CCCCC21)C(C)C (centres undefined)", "melting point": "142 to 145 °C"}
{"COMPOUND": "CC(C)(C)OC(=O)[C@H]1C[C@@H](S(=O)(=O)c2ccccc2)[C@@H](c2ccccc2)N1C(=O)CNC(=O)Nc1cccc(C(=O)OCc2ccccc2)c1 (racemic)", "melting point": "212 °C"}
{"COMPOUND": "CCCCCCCCCCCc1nc(NC(=O)Nc2c(C(C)C)cccc2C(C)C)n[nH]1", "melting point": "168 to 170 °C"}
{"COMPOUND": "CCCc1cccc(C2(c3ccc(OC(F)(F)F)cc3)N=C(N)N3CCCN=C32)c1 (centres undefined)", "melting point": "75 to 79 °C"}
{"COMPOUND": "O=C(O)C(=O)CC(=O)c1ccn(Cc2ccccc2)c1", "melting point": "151 to 152 °C"}
{"COMPOUND": "CCCCc1nn(-c2cccc(NC(=O)CC)c2)c(=O)n1Cc1ccc(-c2ccccc2S(=O)(=O)NC(=O)c2ccccc2Cl)cc1", "melting point": "105 to 107 °C"}
{"COMPOUND": "CN(C(=O)C1CCCCC1)c1ccccc1C(c1ccc(O)cc1)c1ccc(O)cc1", "melting point": "250 to 252 °C"}
{"COMPOUND": "CCOCc1nc2cnc3ccccc3c2n1CCCCC(N)=O", "melting point": "157 to 158 °C"}
{"COMPOUND": "Cn1cc(-c2cccc(C3NCCc4c3sc3c4CC(C)(C)C3)c2CO)cc(Nc2cnn3c2COCC3)c1=O (centres undefined)", "melting point": "167 to 168 °C"}
{"COMPOUND": "CC1=C(c2ccccc2)C(c2ccccc2Cl)C([N+](=O)[O-])=C(C)N1 (centres undefined)", "melting point": "232 °C"}
{"COMPOUND": "COC(=O)CC1(C)Oc2ccc([N+](=O)[O-])cc2-n2c(Cl)ccc21 (centres undefined)", "melting point": "124 to 125 °C"}
{"COMPOUND": "COC(=O)c1ccc(-c2cccc(CO)c2)cc1", "melting point": "88 to 89 °C"}
{"COMPOUND": "NCCNC(=S)Nc1c(Br)cccc1Br", "melting point": "155 to 157 °C"}

====

{"COMPOUND": "COC(=O)c1cscc1NC(=O)COc1ccc(Cl)c(Cl)c1", "melting point": "179 to 182 °C"}
{"COMPOUND": "CCCCCCCCCCCCCCCCCCNC(=O)OCC(CNS(=O)(=O)CCCCl)n1nnnc1C (stereo not given)", "melting point": "74 to 77 °C"}
{"COMPOUND": "O=C(CCCC1CCN(Cc2cccc(O)c2)CC1)c1ccc2c(c1)CCN(Cc1ccccc1)CC2", "melting point": "88 to 94 °C"}
{"COMPOUND": "O=C(Cc1ccc(CCNS(=O)(=O)c2ccc(Cl)cc2)cc1)Nc1nnn[nH]1", "melting point": "168 to 170 °C"}
{"COMPOUND": "CN1C(O)=C(C(=O)Nc2ccccc2Cl)c2cscc2S1(=O)=O", "melting point": "152 to 155 °C"}
{"COMPOUND": "N[C@H](CCC(=O)N1[C@H](C(=O)O)C[C@@H]2CCCC[C@@H]21)C(=O)O", "melting point": "191 to 192 °C"}
{"COMPOUND": "O=S(=O)(c1ccc(Cl)cc1)C(c1cc(F)ccc1F)c1cc(CO)ncc1Br (stereo not given)", "melting point": "172 to 173 °C"}
{"COMPOUND": "Clc1ncc(-c2nc(Cl)nc(Cl)c2Br)c(Cl)n1", "melting point": "136 to 138 °C"}
{"COMPOUND": "S=C1NCC(Cl)=NN1c1cc(Cl)cc(Cl)c1", "melting point": "207 to 208 °C"}
{"COMPOUND": "O=C(NCc1ccc(Br)cc1)c1cn(N2CCOCC2)c2ccc(CN3CCOCC3)cc2c1=O", "melting point": "200 to 202 °C"}
{"COMPOUND": "COc1c(N2CCC(N(C)C)C(C)C2)c(F)c(N)c2c(=O)c(C(=O)O)cn(C3CC3)c12 (stereo not given)", "melting point": "210 °C"}
{"COMPOUND": "CCCCC1=NC2(CCCC2)C(=O)N1Cc1ccc(-c2ccccc2S(=O)(=O)Nc2onc(C)c2C)c(OCCOC)c1", "melting point": "55 to 58 °C"}
{"COMPOUND": "NS(=O)(=O)c1ccc(-c2nc(-c3cnn4c(C(F)(F)F)cc(-c5ccc(C(F)(F)F)cc5)nc34)no2)s1", "melting point": "272 °C"}
{"COMPOUND": "C=C1N(c2ccc(Cl)cc2)C(=O)OC12CCN(C(=O)N1CCN(CCO)CC1)CC2", "melting point": "185 to 186 °C"}
{"COMPOUND": "CN(Cc1ccc(F)cc1)C(=O)c1cnc2c3c(ccc2c1)C(=O)C(C(=O)O)C=N3 (stereo not given)", "melting point": "245 to 246 °C"}
{"COMPOUND": "CS(=O)(=O)Oc1ccc(N)c(OCCBr)c1", "melting point": "69 to 70 °C"}
{"COMPOUND": "O=C(O)c1cnn2c(C(F)F)cc(-c3ccc(C(F)(F)F)c(F)c3)nc12", "melting point": "233 °C"}
{"COMPOUND": "CCCCc1ccc2nnc(C(=O)O)cc2c1", "melting point": "131 to 133 °C"}
{"COMPOUND": "O=C(O)c1ccc(OCC(O)CO)cc1O (stereo not given)", "melting point": "151 to 153 °C"}
{"COMPOUND": "CCCC1=C(C(=O)OCC)C(c2ccncc2)c2c[nH]nc2N1 (stereo not given)", "melting point": "266 °C"}
